Molecular target: AR protein (Homo sapiens, UniProt P10275, T878A)
Construct: degradation activity of the compounds disclosed in the present disclosure on AR protein in LNCaP cells; host or cells: LNCaP FGC
Sequence (P10275 whole entry T878A): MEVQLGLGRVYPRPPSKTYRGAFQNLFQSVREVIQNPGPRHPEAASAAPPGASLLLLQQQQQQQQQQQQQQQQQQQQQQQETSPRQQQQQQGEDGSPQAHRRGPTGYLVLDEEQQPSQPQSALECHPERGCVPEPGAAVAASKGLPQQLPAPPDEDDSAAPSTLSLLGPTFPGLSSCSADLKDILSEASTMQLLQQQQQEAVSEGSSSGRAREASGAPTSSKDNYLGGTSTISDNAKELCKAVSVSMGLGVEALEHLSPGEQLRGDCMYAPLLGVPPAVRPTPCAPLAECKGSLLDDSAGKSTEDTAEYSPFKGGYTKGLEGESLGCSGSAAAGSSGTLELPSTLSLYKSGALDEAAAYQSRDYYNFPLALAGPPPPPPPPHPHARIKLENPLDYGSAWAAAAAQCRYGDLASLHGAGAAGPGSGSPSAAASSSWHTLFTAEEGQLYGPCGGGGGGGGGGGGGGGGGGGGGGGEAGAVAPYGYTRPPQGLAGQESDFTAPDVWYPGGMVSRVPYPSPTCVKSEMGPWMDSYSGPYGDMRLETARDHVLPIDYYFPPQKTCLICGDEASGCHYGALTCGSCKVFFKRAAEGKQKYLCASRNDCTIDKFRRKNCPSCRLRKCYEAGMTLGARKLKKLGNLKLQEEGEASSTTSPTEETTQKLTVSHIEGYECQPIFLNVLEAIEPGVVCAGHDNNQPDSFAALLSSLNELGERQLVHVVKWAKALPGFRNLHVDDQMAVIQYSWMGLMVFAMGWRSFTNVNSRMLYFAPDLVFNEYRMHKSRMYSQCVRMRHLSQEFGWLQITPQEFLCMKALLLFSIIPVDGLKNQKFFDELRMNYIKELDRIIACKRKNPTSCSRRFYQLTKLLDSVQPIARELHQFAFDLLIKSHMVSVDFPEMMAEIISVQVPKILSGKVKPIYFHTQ
Test: Degradation of AR protein in LNCaP cells (Western blot)
Type: cell-based
Conditions: LNCaP cells, compound 10 nM, 8 hours, Western blot grayscale, GAPDH internal reference; read-out: Degradation rates of the AR protein in LNCaP cells, 10 nM (%)
measurement.kind: inhibition at 0.01 µM (%)

Some solved cases for reference:
{"compound": "N#Cc1ccc(O[C@H]2CC[C@H](NC(=O)c3ccc(N4CCC(O)(CN5CCC6(CC5)COc5c6ccc6c5C(=O)N(C5CCC(=O)NC5=O)C6=O)CC4)nn3)CC2)cc1C(F)(F)F (stereo partly shown)", "tested.system": "AR protein (Homo sapiens, UniProt P10275, T878A)", "inhibition at 0.01 µM / %": 40}
{"compound": "COc1cc(O[C@H]2C(C)(C)[C@H](NC(=O)c3ccc(N4CCC(CN5CC6(CCc7cc8c(cc7O6)CN(C6CCC(=O)NC6=O)C8=O)C5)CC4)cc3)C2(C)C)ccc1C#N (stereo partly shown)", "tested.system": "AR protein (Homo sapiens, UniProt P10275, T878A)", "inhibition at 0.01 µM / %": 42}

a: N#Cc1ccc(O[C@H]2CC[C@H](NC(=O)c3ccc(N4CC[C@H](CN5CCC6(CC5)COc5cc7c(cc5C6)C(=O)N(C5CCC(=O)NC5=O)C7=O)C4)nn3)CC2)cc1Cl (stereo partly shown)
b: N#Cc1ccc(O[C@H]2CC[C@H](NC(=O)c3ccc(N4CCC(CN5CCC6(CC5)Oc5cc7c(cc5CC6(F)F)C(=O)N(C5CCC(=O)NC5=O)C7=O)CC4)nn3)CC2)cc1Cl (stereo partly shown)
Which numeric inhibition at 0.01 µM is bigger, that of a or that of b ? Indicate which entry you chose by stating its label.
a
(a: 39%, b: 7%)

====

Target: AR protein (Homo sapiens, UniProt P10275)
Construct: degradation activity of the compounds disclosed in the present disclosure on AR protein in VCaP cells; host or cells: VCaP
Sequence (P10275 whole entry): as the sequence (P10275 whole entry T878A) above, with A878T counted along it
Experiment: Degradation of AR protein in VCaP cells (Western blot)
Type: cell-based
Settings: compound at 100 nM, 8 hours, read-out: Degradation rate of the AR protein in VCaP cells, 100 nM (%)
measurement.kind: inhibition at 0.1 µM (%)

{"molecule": "CCOC1(CN2CCC3(CC2)COc2c3ccc3c2C(=O)N(C2CCC(=O)NC2=O)C3=O)CCN(c2ccc(C(=O)N[C@H]3CC[C@H](Oc4ccc(C#N)c(OC)c4)CC3)nn2)CC1 (stereo partly shown)", "measurement.unit": "%", "inhibition at 0.1 µM": 68}
{"molecule": "N#Cc1ccc(O[C@H]2CC[C@H](NC(=O)c3ccc(N4CC(N5CCC6(CC5)COc5c(ccc7c5C(=O)N(C5CCC(=O)NC5=O)C7)C6)C4)nn3)CC2)cc1Cl (stereo partly shown)", "measurement.unit": "%", "inhibition at 0.1 µM": 68}
{"molecule": "N#Cc1ccc(O[C@H]2CC[C@H](NC(=O)c3ccc(N4CCC(CN5CCC6(CC5)COc5cc7c(cc56)C(=O)N(C5CCC(=O)NC5=O)C7=O)CC4)nn3)CC2)cc1Cl (stereo partly shown)", "measurement.unit": "%", "inhibition at 0.1 µM": 88}
{"molecule": "N#Cc1ccc(O[C@H]2CC[C@H](NC(=O)c3ccc(N4CCC5(CC4)COc4cc6c(cc4C5)C(=O)N(C4CCC(=O)NC4=O)C6=O)nn3)CC2)cc1Cl (stereo partly shown)", "measurement.unit": "%", "inhibition at 0.1 µM": 64}
{"molecule": "N#Cc1ccc(O[C@H]2CC[C@H](NC(=O)c3ccc(N4CC5(CCC(N6CCC7(CC6)COc6c7ccc7c6CN(C6CCC(=O)NC6=O)C7=O)CC5)C4)nn3)CC2)cc1Cl (stereo partly shown)", "measurement.unit": "%", "inhibition at 0.1 µM": 77}
{"molecule": "COc1cc(O[C@H]2CC[C@H](NC(=O)c3ccc(N4CCC(C)(CN5CCC6(CC5)COc5c6ccc6c5C(=O)N(C5CCC(=O)NC5=O)C6=O)CC4)nn3)CC2)ccc1C#N (stereo partly shown)", "measurement.unit": "%", "inhibition at 0.1 µM": 73}
{"molecule": "N#Cc1ccc(O[C@H]2CC[C@H](NC(=O)c3ccc(N4CC(N5CCC6(CC5)COc5c6ccc6c5CN(C5CCC(=O)NC5=O)C6=O)C4)nn3)CC2)cc1Cl (stereo partly shown)", "measurement.unit": "%", "inhibition at 0.1 µM": 84}
{"molecule": "N#Cc1ccc(O[C@H]2CC[C@H](NC(=O)c3ccc(N4CC[C@H](CN5CCC6(CCc7cc8c(cc7O6)C(=O)N(C6CCC(=O)NC6=O)C8=O)CC5)C4)nn3)CC2)cc1Cl (stereo partly shown)", "measurement.unit": "%", "inhibition at 0.1 µM": 64}
{"molecule": "N#Cc1ccc(O[C@H]2CC[C@H](NC(=O)c3ccc(N4CCC5(CC4)CC(N4CCC6(CCc7cc8c(cc7O6)C(=O)N(C6CCC(=O)NC6=O)C8=O)CC4)C5)nn3)CC2)cc1Cl (stereo partly shown)", "measurement.unit": "%", "inhibition at 0.1 µM": 70}
{"molecule": "N#Cc1ccc(O[C@H]2CC[C@H](NC(=O)c3cnc(N4CCC(F)(CN5CCC6(CC5)COc5c6ccc6c5CN(C5CCC(=O)NC5=O)C6=O)CC4)nc3)CC2)cc1Cl (stereo partly shown)", "measurement.unit": "%", "inhibition at 0.1 µM": 81}
